B1: Hairpin Ribozyme (parent)
chain: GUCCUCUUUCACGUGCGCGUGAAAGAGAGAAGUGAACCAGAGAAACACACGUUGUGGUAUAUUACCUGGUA

Variants of: B1
Assay: self-cleavage, relative activity (ratio to wild type); higher = more cleavage; co-transcriptional
# key: entry, value: self-cleavage
measured-metric: self-cleavage

{"columns": ["mutant-code", "measured-metric", "assay-result"],
 "data": [
  ["A22C A39G", "self-cleavage", 0.362],
  ["U52C C65A", "self-cleavage", 1.2],
  ["C16A G42C", "self-cleavage", 0.304],
  ["C3G C12U", "self-cleavage", 0.26],
  ["G17C U53G", "self-cleavage", 0.41],
  ["A11G U63A", "self-cleavage", 0.116],
  ["C16U G27A", "self-cleavage", 0.536],
  ["U8G G42A", "self-cleavage", 0.156],
  ["C12U C18G", "self-cleavage", 0.832],
  ["C12A C66A", "self-cleavage", 0.259],
  ["G15A A45C", "self-cleavage", 0.0834],
  ["C18A A31C", "self-cleavage", 0.192],
  ["A30U G51C", "self-cleavage", 0.164],
  ["C50U C66A", "self-cleavage", 0.165],
  ["A28G U33G", "self-cleavage", 0.211],
  ["G42C A49C", "self-cleavage", 0.215],
  ["A22C A24U", "self-cleavage", 0.485],
  ["A35G C66G", "self-cleavage", 0.127],
  ["A44G A61U", "self-cleavage", 0.189],
  ["G27U A30U", "self-cleavage", 0.116],
  ["A11C A31C", "self-cleavage", 0.116],
  ["G51C U53A", "self-cleavage", 0.72]
]}
